Sequence of the target: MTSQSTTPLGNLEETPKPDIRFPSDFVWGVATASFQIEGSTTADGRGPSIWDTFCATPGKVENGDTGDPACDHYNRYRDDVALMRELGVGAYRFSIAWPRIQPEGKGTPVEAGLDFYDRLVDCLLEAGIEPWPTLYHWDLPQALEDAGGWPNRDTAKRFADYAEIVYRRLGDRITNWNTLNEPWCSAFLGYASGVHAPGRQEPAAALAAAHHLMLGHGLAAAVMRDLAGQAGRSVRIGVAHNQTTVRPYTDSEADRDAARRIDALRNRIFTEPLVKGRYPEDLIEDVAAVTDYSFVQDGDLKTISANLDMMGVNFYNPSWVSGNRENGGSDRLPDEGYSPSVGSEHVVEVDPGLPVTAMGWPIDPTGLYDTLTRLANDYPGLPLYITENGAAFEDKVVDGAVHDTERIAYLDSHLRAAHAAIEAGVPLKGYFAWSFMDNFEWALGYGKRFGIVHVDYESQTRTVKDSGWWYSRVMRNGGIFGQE
REPORTED ENDPOINT: pKi
In simple prose, pKi is minus the logarithm base ten of a concentration in moles per litre.

Problem: I have this compound here, O=C1O[C@H](CO)[C@@H](O)[C@H](O)[C@H]1O [D-glucono-δ-lactone] , and I need its recorded pKi.
Solution: 5.18
